Let's look at some variants and their measured protein stability index.
B1: LPCAT4 (parent)
chain: HDPLYGKLFSTYLRPPHTSRGTSQ

# Variants of: B1
# assayMethodText: protein stability index of a GFP-peptide fusion (GPS, HEK-293T) (PSI 1-6); higher = more stable;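 also: lentivirally expressed fusions sorted by FACS into six bins by GFP to DsRed ratio, PSI derived from sequencing read proportions per bin multiplied by bin number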
# measurementConditions: c terminus: a fixed tail appended
readoutName: protein stability index

sequenceInput	val
HDPLYGKLFSTYLRPPHTSRGMSQ [T22M]	2.72
HDPLYGKTFSTYLRPPHTSRGTSQ [L8T]	4.31
HDPLYGKLFSTYLRPPHTSRGTSE [Q24E]	3.01
HDPLYGKLFSTYLRPPHTSRFTSQ [G21F]	2.46
HFPLYGKLFSTYLRPPHTSRGTSQ [D2F]	2.27
HDPLYGKLFSTELRPPHTSRGTSQ [Y12E]	4.3
HDPLYGKLFSTYMRPPHTSRGTSQ [L13M]	3.1
HDPLYGKLFSTYLRAPHTSRGTSQ [P15A]	2.7
HDPLYGKLFSTYLRPPHESRGTSQ [T18E]	2.6
HDPLYGKLFSTYLRPPHTSRGTMQ [S23M]	2.34
HDPLYGKLFSTYLRPPHFSRGTSQ [T18F]	2.24
HDPLYGKLFSTYLRPPHTSRLTSQ [G21L]	2.48
HDPLVGKLFSTYLRPPHTSRGTSQ [Y5V]	3.3
HDPLYGKLFSTYLRPPHTSRGTAQ [S23A]	3
HSPLYGKLFSTYLRPPHTSRGTSQ [D2S]	2.5
HDPLYGKHFSTYLRPPHTSRGTSQ [L8H]	4.44
HDPLYGKLFSTYLRPPHTSRCTSQ [G21C]	2.51
HDPLYGKLFSTYLRPPQTSRGTSQ [H17Q]	2.61
HDPLYGKLFKTYLRPPHTSRGTSQ [S10K]	3.46
HDPLYGVLFSTYLRPPHTSRGTSQ [K7V]	2.68
HDPLYGKLFSTYLRPPHTSPGTSQ [R20P]	2.66
HDTLYGKLFSTYLRPPHTSRGTSQ [P3T]	2.7
